Tested on: RSV-A2-GFP virus
Test: microbe, parasite or virus in culture
Type: cell-based, Human Respiratory Syncytial Virus
Details: Calu-1 cells infected with RSV-A2-GFP, 96 hrs, GFP-expressing cells counted; read-out: RSV EC50
pEC50: −log10 of the molar value.
attribute measured: pEC50

These solved cases illustrate the format of a correct answer.
structure smiles: CC(C)(N)c1cc(O[C@H]2[C@@H]3CN(C(=O)c4cn(-c5ncccn5)nc4C(F)(F)F)C[C@@H]32)nc(-c2ccc(F)cc2)c1
pEC50: > 8.00
//
structure smiles: Cc1nn(-c2ncccn2)cc1C(=O)N1C[C@@H]2[C@H](C1)[C@H]2Oc1cc(C(C)(C)N)cc(-c2ccc(C(F)(F)F)nc2)n1
pEC50: > 8.00

Q: Bench note: what pEC50 did Cn1nc(-c2ncccn2)cc1C(=O)N1C[C@@H]2[C@H](C1)[C@H]2Oc1cc(C(C)(C)N)cc(-c2ccc3c(c2)CC3(F)F)n1 show?
Result: > 8.00

---

pEC50: recorded values
Tested on: hMPV-GFP virus
Assay: microbe, parasite or virus in culture
Assay type: cell-based, human metapneumovirus
Settings: human metapneumovirus, Vero, 48 h, read-out: hMPV EC50, VERO cells infected with hMPV-GFP, 48 hrs, GFP-expressing cells counted
pEC50: −log10 of the molar value.

These solved cases illustrate the format of a correct answer.
molecule: Cn1nc(-c2ncccn2)c(Cl)c1C(=O)N1C[C@@H]2[C@H](C1)[C@H]2Oc1cc(C(C)(C)N)cc(-c2ccc(F)cc2)n1
reported measurement: < 7.00
--
molecule: CC(C)(N)c1cc(O[C@@H]2C[C@@H]3[C@H]2CN3C(=O)c2cnc(-c3ncccn3)s2)nc(-c2ccc(F)cc2)c1 (single isomer, unassigned)
reported measurement: < 7.00
--
molecule: Cc1nn(-c2ncccn2)cc1C(=O)N1C[C@@H]2[C@H](C1)[C@H]2Oc1cc(C2(C)CCCN2)cc(-c2ccc(F)cc2)n1 (single isomer, unassigned; enantiomer 1)
reported measurement: < 7.00
--
molecule: CC(C)(N)c1cc(O[C@H]2[C@@H]3CN(C(=O)c4cn(-c5ncccn5)nc4CCF)C[C@@H]32)nc(-c2ccc(F)cc2)c1
reported measurement: < 7.00
--
molecule: CCc1nc(-c2ncccn2)sc1C(=O)N1C[C@@H]2[C@H]1C[C@H]2Oc1cc(C(C)(C)N)cc(-c2ccc(F)cc2)n1 (single isomer, unassigned; enantiomer 2)
reported measurement: < 7.00

Q: Bench note: what pEC50 did Cc1nn(-c2ncccn2)c(F)c1C(=O)N1C[C@@H]2[C@H](C1)[C@H]2Oc1cc(C(C)(C)N)cc(-c2ccc(F)cc2)n1 show?
Result: < 7.00

Q: Quick one: Cc1nc(-c2ncccn2)sc1C(=O)N1C[C@@H]2[C@H](C1)[C@H]2Oc1cc(C(C)(C)N)cc(-c2ccc(F)cc2F)n1
Result: 7.00 to 8.00

Q: Quick one: CC(C)(N)c1cc(O[C@H]2[C@@H]3CN(C(=O)c4cn(-c5ncccn5)nc4CC(F)F)C[C@@H]32)nc(-c2ccc(F)cc2)c1
Result: < 7.00

---

Test system: hMPV-GFP virus
Test: microbe, parasite or virus in culture
Assay type: cell-based, human metapneumovirus
Conditions: read-out: hMPV EC50; VERO cells infected with hMPV-GFP, 48 hrs, GFP-expressing cells counted
attribute measured: EC50

These solved cases illustrate the format of a correct answer.
compound: Cc1nc(-c2ncccn2)sc1C(=O)N1C[C@@H]2[C@H]1C[C@H]2Oc1cc(C(C)(C)N)cc(-c2ccc(F)cc2)n1 (single isomer, unassigned) [Example 1B]
EC50: > 100 nM

compound: Cn1nc(-c2ncccn2)cc1C(=O)N1C[C@H]2[C@H](Oc3cc(C(C)(C)N)cc(-c4ccc(F)c(F)c4)n3)[C@@]2(C)C1 (single isomer, unassigned; enantiomer 1) [Example 105A]
EC50: > 100 nM

compound: Cn1nc(-c2ncccn2)cc1C(=O)N1C[C@H]2[C@H](Oc3cc(C(C)(C)N)cc(-c4ccc(F)cc4)n3)[C@@]2(C)C1 (single isomer, unassigned; enantiomer 2) [Example 104B]
EC50: > 100 nM

Q: Bench note: what EC50 did Cc1nn(-c2ncccn2)cc1C(=O)N1C[C@H]2[C@H](Oc3cc(C(C)(C)N)cc(-c4ccc(C(F)(F)F)cc4)n3)[C@@]2(C)C1 (single isomer, unassigned; enantiomer 1) [Example 111A] show?
Result: > 100 nM

Q: Quick one: Cn1nc(-c2ncccn2)cc1C(=O)N1C[C@H]2[C@H](Oc3cc(C(C)(C)N)cc(-c4ccc(F)c(F)c4)n3)[C@@]2(C)C1 (single isomer, unassigned; enantiomer 2) [Example 105B]
Result: 10 to 100 nM

Q: Quick one: Cc1nn(-c2ncccn2)cc1C(=O)N1C[C@H]2[C@H](Oc3cc(C(C)(C)N)cc(-c4ccc(F)cc4)n3)[C@@]2(C)C1 (single isomer, unassigned; enantiomer 2) [Example 107B]
Result: > 100 nM
